target: p300 HAT domain (residues 1287-1666) (Homo sapiens (Human), UniProt Q09472); experiment: p300 HAT SPA assay (scintillation proximity assay, acetylation of biotinylated H3(1-21) peptide); format: biochemical; conditions: p300 HAT domain; average of at least 2 replicate titrations; read-out: P300 HAT SPA IC50
Sequence (Q09472 1287-1666): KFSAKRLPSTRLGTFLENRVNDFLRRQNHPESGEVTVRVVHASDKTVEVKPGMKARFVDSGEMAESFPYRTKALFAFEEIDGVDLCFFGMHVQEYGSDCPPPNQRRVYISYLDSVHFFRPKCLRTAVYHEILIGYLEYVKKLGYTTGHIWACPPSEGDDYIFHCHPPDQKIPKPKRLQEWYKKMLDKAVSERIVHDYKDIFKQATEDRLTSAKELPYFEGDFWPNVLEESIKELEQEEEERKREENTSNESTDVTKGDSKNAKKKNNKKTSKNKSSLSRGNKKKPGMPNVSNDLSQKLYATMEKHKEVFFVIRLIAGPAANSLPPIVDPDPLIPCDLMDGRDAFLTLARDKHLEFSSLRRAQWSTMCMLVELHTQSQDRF
pIC50: −log10 of the molar value.
resultType: pIC50

Before answering, review these 5 worked examples.
NC(=O)c1ccc(CCNC(C(=O)c2c[nH]c3ccccc23)c2ccccc2)cc1 (single isomer, unassigned) [133 Isomer 2]; 5.67
Cn1cc(-c2ccc3c(C(=O)C(NCCc4ccc(C(N)=O)cc4)c4ccccc4)c[nH]c3c2)cn1 (single isomer, unassigned) [139 Isomer 1]; 5.08
NS(=O)(=O)c1ccc(CCNC(C(=O)c2c[nH]c3cccnc23)c2ccccc2)cc1 (racemic) [Example 30]; 4.49
CCNC(=O)c1ccc2c(C(=O)C(NCC(C)c3ccc(C#N)cc3)c3ccccc3)cnn2c1 (single isomer, unassigned) [69 Isomer 4]; 7.68
COc1ccc(CCNC(C(=O)c2c[nH]c3c(Cl)cccc23)c2ccccc2)cc1 (single isomer, unassigned) [28 Isomer 2]; 5.86

a = Cc1[nH]c2ccccc2c1C(=O)C(NCCc1ccc(S(N)(=O)=O)cc1)c1ccccc1 (single isomer, unassigned) [16 Isomer 1]
b = COCCn1cc(-c2ccc3c(C(=O)C(NCCc4ccc(C(N)=O)cc4)c4ccccc4)c[nH]c3c2)cn1 (single isomer, unassigned) [183 Isomer 2]
c = O=C(c1c[nH]c2cc(-c3ccncc3)ccc12)C(NCCc1ccc(Cl)cc1)c1ccccc1 (single isomer, unassigned) [89 Isomer 1]
d = CN(C)CCNC(=O)c1ccc2c(C(=O)C(NCCc3ccc(Cl)cc3Cl)c3ccccc3)c[nH]c2c1 (single isomer, unassigned) [153 Isomer 1]
Incoming: Put the compounds in ascending order of pIC50. Return the labels ranked in the requested order, please.
Outgoing: a, c, b, d

P = O=C(c1c[nH]c2cc(N3CCCC3=O)ccc12)C(NCCc1ccc(Cl)cc1)c1ccccc1 (single isomer, unassigned) [74 Isomer 2]
Q = CC(CNC(C(=O)c1c[nH]c2ccccc12)c1ccccc1)c1ccc(C(N)=O)cc1 (single isomer, unassigned) [141 Isomer 1]
Incoming: Larger number for pIC50: P , or Q ? Answer format: the label of the selected item.
Outgoing: P

A = COc1ccc(CCNC(C(=O)c2c[nH]c3c(C)cccc23)c2ccccc2)cc1 (single isomer, unassigned) [80 Isomer 1]
B = O=C(c1c[nH]c2ccccc12)C(NCCc1ccc(-c2c[nH]nn2)cc1)c1ccccc1 (single isomer, unassigned) [57 Isomer 2]
Incoming: Would you let me know which has the greater pIC50 value, A or B ? Refer to your chosen item by its label in the answer.
Outgoing: B

----------
Reported pIC50 values follow for various compounds
biological target: p300 HAT domain (residues 1287-1666) (Homo sapiens (Human)); experiment: p300 HAT SPA assay (scintillation proximity assay, acetylation of biotinylated H3(1-21) peptide); type: biochemical; conditions: p300 HAT domain; average of at least 2 replicate titrations; read-out: P300 HAT SPA IC50
pIC50: −log10 of the molar value.

CN(C)C(=O)Cc1ccc(CCNC(C(=O)c2c[nH]c3ccccc23)c2ccccc2)cc1 (single isomer, unassigned) [137 Isomer 2]; < 4.22
CN(C)C(=O)c1ccc2c(C(=O)C(NCCc3ccc(Cl)cc3Cl)c3ccccc3)c[nH]c2c1 (single isomer, unassigned) [152 Isomer 1]; < 4.52
O=C(c1c[nH]c2ccccc12)C(NCCc1ccc(Cl)c(Cl)c1)c1ccccc1 (single isomer, unassigned) [20 Isomer 1]; < 4.22
CC(=O)N1CCC(c2ccc3c(C(=O)C(NCCc4ccc(Cl)cc4)c4ccccc4)c[nH]c3c2)CC1 (single isomer, unassigned) [65 Isomer 1]; < 4.52

Recorded result, CC(Cc1ccc(Cl)cc1)NC(C(=O)c1c[nH]c2cc(-c3cnn(C)c3)ccc12)c1ccccc1 (single isomer, unassigned) [92 Isomer 2] , pIC50: < 4.52
